tested on: BT-549 breast; assay: NCI tumour cell line growth inhibition, 48 h
recorded-endpoint: TGI

Oc1ccc(-c2nc3ccc4[nH]ncc4c3c3c2CCCC3)c(F)c1: 8.87 µM
COc1ccc2c(c1)CC[C@@H]1[C@@H]2CC[C@]2(C)[C@@H](NC(=O)/C=C/c3ccc(O)c(O)c3)CC[C@@H]12: 20.3 µM

Ask: Supply TGI value. Item: `COC(=O)[C@H]1NC(=O)CCSSC1(C)C`
Reply: > 100 µM

###

tested on: NCI-H23 lung; test: NCI tumour cell line growth inhibition, 48 h
Some compounds, each annotated with its measured TGI.

CC(=O)OC1=CC2=CC[C@H]3[C@@H]4CCC(=O)[C@@]4(C)CC(=O)[C@]3(S)[C@@]2(C)CC1: > 100 µM

Ask: Supply TGI value. Item: `Oc1ccc(Cl)cc1-c1cc(-c2ccccc2)nc(NCN2CCCCC2)n1`
Reply: > 100 µM

Ask: Supply TGI value. Item: `COc1cc(C2=NNC(=O)c3ccccc3N2c2nc(-c3cccs3)nc3ccc(Br)cc23)cc(OC)c1OC`
Reply: 53.4 µM

Ask: Supply TGI value. Item: `FC(F)(F)c1ccc(-c2cnc(-n3cc(COCCN4CCCCC4)nn3)nc2NC2CCCCCC2)cc1`
Reply: 7.81 µM

Ask: Supply TGI value. Item: `CCOC(=O)C[n+]1cccc(C2(c3cc4ccccc4[nH]3)OCCO2)c1`
Reply: > 100 µM

Ask: Supply TGI value. Item: C=CCN1C(=O)/C(=C/c2ccco2)N=C1SC1OC(COC(C)=O)C(OC(C)=O)C(OC(C)=O)C1OC(C)=O (centres undefined)
Reply: > 100 µM

Ask: Supply TGI value. Item: `O=C(c1ccccc1)n1cc(-c2ccccc2)c2c(=O)[nH]cnc21`
Reply: > 100 µM

Ask: Supply TGI value. Item: COc1cc2cc(C(=O)N3CC(CCl)c4c3cc(NC(=O)OCc3ccc([N+](=O)[O-])cc3)c3ccccc43)[nH]c2c(OC)c1OC (centres undefined)
Reply: > 45.4 µM

Ask: Supply TGI value. Item: `C(=N\Nc1ccc(-c2nc3ccccc3[nH]2)cc1)/c1c(-c2ccc(Cc3ccccc3)cc2)[nH]c2ccccc12`
Reply: 59.5 µM

Ask: Supply TGI value. Item: CC(=O)NC1C(OCc2ccccc2)OC(CO)C(O)C1OC(C)C(=O)N[C@@H](C)C(=O)N[C@H](CCC(=O)OCCNc1c2ccccc2nc2cccc([N+](=O)[O-])c12)C(N)=O (some centres undefined)
Reply: 0.00545 µM

Ask: Supply TGI value. Item: O=C1C2=C(c3ccccc31)C(c1ccccc1)N1C(=O)CSC1=N2 (centres undefined)
Reply: > 100 µM

Ask: Supply TGI value. Item: CCn1c(SC(C)C(=O)c2c(C)n(C)n(-c3ccccc3)c2=O)nc2ccccc2c1=O (centres undefined)
Reply: > 100 µM

Ask: Supply TGI value. Item: `COc1ccc(S(=O)(=O)NC2=NCCN2C(=S)SN2CCn3c2nsc3=S)cc1`
Reply: 55.7 µM

Ask: Supply TGI value. Item: `COc1cc2oc(=O)cc(C)c2cc1O`
Reply: > 100 µM

Ask: Supply TGI value. Item: `O=c1cc(-c2c[nH]c3ccccc23)[nH]c2cc3c(cc12)OCO3`
Reply: > 100 µM

Provenance of the data: PubChem BioAssay (NCI)
